- assaySystem: HCV NS3 protease genotype 3a (3A-1) (Hepatitis C virus genotype 3a, UniProt Q81258)
- assayDetails: HCV NS3 protease time-resolved fluorescence (TRF) assay, genotype 3a
- Format: biochemical
- settings: Ki 3a
- Excerpt: The HCV NS3 protease inhibitory activity of the present compounds may be tested using assays known in the art. One such assay is HCV NS3 protease time-resolved fluorescence (TRF) assay as described below and in International Patent Application Publication No. WO2006/102087. […] Product fluorescence is detected using either a VICTOR V2 or FUSION fluorophotometer (Perkin Elmer Life and Analytical Sciences) with excitation at 340 nm and emission at 615 nm with a 400 μs delay. […]
Overview of reported Ki across a group of compounds:
Kindly answer with a numeric value in pM, unit omitted.

These recorded examples may help you get a feel for the data.
- molSmiles: "C=C[C@@H]1C[C@]1(NC(=O)[C@@H]1C[C@@H]2CN1C(=O)[C@H](C(C)(C)C)NC(=O)O[C@@H]1C[C@H]1CCCCCc1c(nc3ccccc3c1OCCN1CCS(=O)(=O)CC1)O2)C(=O)NS(=O)(=O)C1(C)CC1"
  unitAbbreviation: "pM"
  Ki: 1300
- molSmiles: "C=C[C@@H]1C[C@]1(NC(=O)[C@@H]1C[C@@H]2CN1C(=O)[C@H](C1CCCC1)NC(=O)O[C@@H]1CCC[C@H]1CC/C=C/Cc1c(nc3ccccc3c1O)O2)C(=O)NS(=O)(=O)C1CC1"
  unitAbbreviation: "pM"
  Ki: 450
- molSmiles: "C=C[C@@H]1C[C@]1(NC(=O)[C@@H]1C[C@@H]2CN1C(=O)[C@H](C(C)(C)C)NC(=O)O[C@@H]1C[C@H]1CCCCCc1c(nc3ccccc3c1OCCCNC(C)C)O2)C(=O)NS(=O)(=O)C1(C)CC1"
  unitAbbreviation: "pM"
  Ki: 360

Field request: Ki | item: C=C[C@@H]1C[C@]1(NC(=O)[C@@H]1C[C@@H]2CN1C(=O)[C@H](C(C)(C)C)NC(=O)O[C@@H]1C[C@H]1CCCCCc1c(nc3cc(C)ccc3c1OCCCN1CC[C@H](N(C)C)C1)O2)C(=O)NS(=O)(=O)C1(C)CC1
740

###

- assaySystem: HCV genotype 1b (BK) NS3 modified enzyme with a R155K mutation (Hepatitis C virus genotype 1b, UniProt P26663, R1181K)
- Construct: HCV genotype 1b (BK) NS3 modified enzyme
- assayDetails: HCV NS3 protease time-resolved fluorescence (TRF) assay, genotype 1b R155K
- Type: biochemical
- settings: Ki 1b R155K, first of two values printed in the cell (not explained)
Counter-ions that a name gives are not always drawn.
measuredMetric: Ki (nM)
A number alone suffices; assume nM.

Entry C=C[C@@H]1C[C@]1(NC(=O)[C@@H]1C[C@@H]2CN1C(=O)[C@H](C(C)(C)C)NC(=O)O[C@@H]1C[C@H]1CCCCCc1c(nc3ccccc3c1OC1CC3CCC(C1)N3CC)O2)C(=O)NS(=O)(=O)C1(C)CC1 (single isomer, unassigned) [Example 277] : reported Ki = ?
0.008

Suppose we examine the molecule C=C[C@@H]1CC1(NC(=O)[C@@H]1C[C@@H]2CN1C(=O)[C@H](C(C)(C)C)NC(=O)O[C@@H]1C[C@H]1CCCCCc1c(nc3ccccc3c1CN1CCOCC1)O2)C(=O)NS(=O)(=O)C1(C)CC1 (stereo partly shown) [Example 248] ; what Ki value has been reported?
0.1

Requested read-out: Ki. Entry: C=C[C@@H]1CC1(NC(=O)[C@@H]1C[C@@H]2CN1C(=O)[C@H](C(C)(C)C)NC(=O)O[C@@H]1C[C@H]1CCCCCc1c(nc3ccccc3c1OC1C3CNCC1COC3)O2)C(=O)NS(=O)(=O)C1(C)CC1 (single isomer, unassigned) [Example 258, trifluoroacetate]
0.012

Query: Ki; subject: C=C[C@@H]1C[C@]1(NC(=O)[C@@H]1C[C@@H]2CN1C(=O)[C@H](C1CCCCC1)NC(=O)O[C@@H]1C[C@H]1CCCCCc1c(nc3ccccc3c1OC1CC3CCC(C1)N3C(=O)OC(C)(C)C)O2)C(=O)NS(=O)(=O)C1(C)CC1 (stereo partly shown) [Example 282]
0.14

###

Ki overview
- assaySystem: HCV genotype 1b (BK) NS3 modified enzyme with a R155K mutation (Hepatitis C virus genotype 1b, UniProt P26663, R1181K)
- Construct: HCV genotype 1b (BK) NS3 modified enzyme
- assayDetails: HCV NS3 protease time-resolved fluorescence (TRF) assay, genotype 1b R155K
- Assay type: biochemical
- settings: Ki 1b R155K, genotype 1b (BK) NS3 R155K; single value
Numeric only. Scale: nM

- compound: "CC[C@@H]1C[C@]1(NC(=O)[C@@H]1C[C@@H]2CN1C(=O)[C@H](C1CCCC1)NC(=O)OC1(C)CCCC1CCCCCc1c(nc3ccccc3c1O)O2)C(=O)NS(=O)(=O)C1CC1 (single isomer, unassigned) [Example 32]"
  measValue: 0.54
- compound: "C=C[C@@H]1C[C@]1(NC(=O)[C@@H]1C[C@@H]2CN1C(=O)[C@H](C(C)(C)C)NC(=O)O[C@@H]1C[C@H]1CCCCCc1c(nc3c(F)cccc3c1OCCN1CCOCC1)O2)C(=O)NS(=O)(=O)C1(C)CC1 [Example 126]"
  measValue: 0.4
- compound: "C=C[C@@H]1C[C@]1(NC(=O)[C@@H]1C[C@@H]2CN1C(=O)[C@H](C1CCCC1)NC(=O)O[C@@H]1CCC[C@H]1CC/C=C/Cc1c(nc3ccccc3c1OCCc1ccccn1)O2)C(=O)NS(=O)(=O)C1CC1 [Example 43]"
  measValue: 0.28
- compound: "C=C[C@@H]1C[C@]1(NC(=O)[C@@H]1C[C@@H]2CN1C(=O)[C@H](C1CCCCC1)NC(=O)O[C@@H]1C[C@H]1CCCCCc1c(nc3c(OC)cccc3c1OCC1CN(C(=O)OC(C)(C)C)C1)O2)C(=O)NS(=O)(=O)C1(C)CC1 [Example 215]"
  measValue: 1.7

Can you share its Ki? I mean this compound: C=C[C@@H]1C[C@]1(NC(=O)[C@@H]1C[C@@H]2CN1C(=O)[C@H](C1CCCC1)NC(=O)O[C@@H]1CCC[C@H]1CC/C=C/Cc1c(nc3ccccc3c1OCCCOCCOC)O2)C(=O)NS(=O)(=O)C1(C)CC1 [Example 57]
0.11

Give its Ki value. Item: C=C[C@@H]1C[C@]1(NC(=O)[C@@H]1C[C@@H]2CN1C(=O)[C@H](C(C)(C)C)NC(=O)O[C@@H]1C[C@H]1CCCCCc1c(nc3cc(C(C)C)ccc3c1OCCN1CCOCC1)O2)C(=O)NS(=O)(=O)C1(C)CC1 [Example 132]
0.39

I am curious: what Ki value has been reported for C=C[C@@H]1C[C@]1(NC(=O)[C@@H]1C[C@@H]2CN1C(=O)[C@H](C(C)(C)C)NC(=O)O[C@@H]1C[C@H]1CCCCCc1c(nc3ccccc3c1OCCCNCCCCc1ccccc1)O2)C(=O)NS(=O)(=O)C1(C)CC1 [Example 198] ?
0.05

For CC1(S(=O)(=O)NC(=O)[C@@]23C[C@H]2/C=C\CCCCC[C@@H]2NC(=O)O[C@@H]4C[C@H]4CCC/C=C/c4c(nc5ccccc5c4OCCN4CCCC4)O[C@@H]4C[C@@H](C(=O)N3)N(C4)C2=O)CC1 [Example 299] , what is its reported Ki?
0.19

I have this compound here, C=C[C@@H]1C[C@]1(NC(=O)[C@@H]1C[C@@H]2CN1C(=O)[C@H](C(C)(C)C)NC(=O)O[C@@H]1C[C@H]1CCCCCc1c(nc3ccccc3c1OCCCN1CCC1)O2)C(=O)NS(=O)(=O)C1(C)CC1 [Example 133] , and I need its recorded Ki.
0.11

###

- assaySystem: HCV NS3 protease genotype 3a (3A-1) (Hepatitis C virus genotype 3a)
- assayDetails: HCV NS3 protease time-resolved fluorescence (TRF) assay, genotype 3a
- Assay type: biochemical
- settings: Ki 3a
Where a name gives a salt, the structure may show the parent alone.
measuredMetric: Ki (nM)
Respond numerically; units are nM and should not be typed.

The cases that follow already have their Ki on record.
- compound: "C=C[C@@H]1C[C@]1(NC(=O)[C@@H]1C[C@@H]2CN1C(=O)[C@H](C(C)(C)C)NC(=O)O[C@@H]1C[C@H]1CCCCCc1c(nc3cc(C(C)C)ccc3c1OCCN1CCOCC1)O2)C(=O)NS(=O)(=O)C1(C)CC1"
  measValue: 6.8
- compound: "C=C[C@@H]1C[C@]1(NC(=O)[C@@H]1C[C@@H]2CN1C(=O)[C@H](C1CCCCC1)NC(=O)O[C@@H]1C[C@H]1CCCCCc1c(nc3ccccc3c1OCCCN1CCN(C)CC1)O2)C(=O)NS(=O)(=O)C1(C)CC1"
  measValue: 1.15
- compound: "C=C[C@@H]1C[C@]1(NC(=O)[C@@H]1C[C@@H]2CN1C(=O)[C@H](C(C)(C)C)NC(=O)O[C@@H]1C[C@H]1CCCCCc1c(nc3ccccc3c1OCCCNCCCCc1ccccc1)O2)C(=O)NS(=O)(=O)C1(C)CC1"
  measValue: 0.77

Request: Ki, test system HCV NS3 protease genotype 3a (3A-1) (Hepatitis C virus genotype 3a), entry C=C[C@@H]1C[C@]1(NC(=O)[C@@H]1C[C@@H]2CN1C(=O)[C@H](C(C)(C)C)NC(=O)O[C@@H]1C[C@H]1CCCCCc1c(nc3ccccc3c1OCCCNC1CCC1)O2)C(=O)NS(=O)(=O)C1(C)CC1
0.58

Missing value: Ki, HCV NS3 protease genotype 3a (3A-1) (Hepatitis C virus genotype 3a), entry C=C[C@@H]1C[C@]1(NC(=O)[C@@H]1C[C@@H]2CN1C(=O)[C@H](C(C)(C)C)NC(=O)O[C@@H]1CCC[C@H]1CC/C=C/Cc1c(nc3ccccc3c1OCCN1CCCCC1)O2)C(=O)NS(=O)(=O)C1CC1 . Fill in?
2.3

Enter reported Ki observed with HCV NS3 protease genotype 3a (3A-1) (Hepatitis C virus genotype 3a) for C=C[C@@H]1C[C@]1(NC(=O)[C@@H]1C[C@@H]2CN1C(=O)[C@H](C(C)(C)C)NC(=O)O[C@@H]1C[C@H]1CCCCCc1c(nc3ccccc3c1OCCCN1CC3(COC3)C1)O2)C(=O)NS(=O)(=O)C1(C)CC1
0.38

GET /values?readout=Ki&system=HCV NS3 protease genotype 3a (3A-1) (Hepatitis C virus genotype 3a)&item= C=C[C@@H]1C[C@]1(NC(=O)[C@@H]1C[C@@H]2CN1C(=O)[C@H](C1CCCCC1)NC(=O)O[C@@H]1C[C@H]1CCCCCc1c(nc3ccccc3c1OCCCNC1CC1)O2)C(=O)NS(=O)(=O)C1(C)CC1 [Example 241, formate]
2.79

Give HCV NS3 protease genotype 3a (3A-1) (Hepatitis C virus genotype 3a) Ki for C=C[C@@H]1C[C@]1(NC(=O)[C@@H]1C[C@@H]2CN1C(=O)[C@H](C1CCCC1)NC(=O)N1CC[C@@H](C1)OCCCCCCc1c(nc3ccccc3c1OCC)O2)C(=O)NS(=O)(=O)C1CC1
22

Any idea what Ki came out for C=C[C@@H]1C[C@]1(NC(=O)[C@@H]1C[C@@H]2CN1C(=O)[C@H](C(C)(C)C)NC(=O)O[C@@H]1C[C@H]1CCCCCc1c(nc3cc(C(C)C)ccc3c1OCCCN1CCS(=O)(=O)CC1)O2)C(=O)NS(=O)(=O)C1(C)CC1 on HCV NS3 protease genotype 3a (3A-1) (Hepatitis C virus genotype 3a)?
1.7
